EXPERIMENTAL_SYSTEM: human GPR39 receptor (Homo sapiens)
Construct: PC3 Cells, Expressing the Endogenous Human GPR39 Receptor; endogenous in cells
Sequence (O43194 whole entry): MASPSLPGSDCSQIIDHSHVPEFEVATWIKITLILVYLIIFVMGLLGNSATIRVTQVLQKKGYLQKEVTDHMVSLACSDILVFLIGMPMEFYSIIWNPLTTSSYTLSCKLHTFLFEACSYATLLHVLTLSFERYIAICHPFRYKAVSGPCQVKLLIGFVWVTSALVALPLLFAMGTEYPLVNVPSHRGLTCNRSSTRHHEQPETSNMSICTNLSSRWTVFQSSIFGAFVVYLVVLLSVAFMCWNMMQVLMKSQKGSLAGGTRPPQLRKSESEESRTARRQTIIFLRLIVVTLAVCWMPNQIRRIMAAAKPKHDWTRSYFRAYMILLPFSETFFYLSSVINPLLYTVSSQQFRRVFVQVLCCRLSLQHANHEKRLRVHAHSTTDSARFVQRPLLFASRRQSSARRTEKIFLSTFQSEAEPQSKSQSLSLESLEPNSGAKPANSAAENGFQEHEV
TEST_DETAILS: Measurement of intracellular calcium response in PC3 cells (FLIPR), antagonism of the C3 agonist response
MEASUREMENT_PARAMETERS: functional pKi (modified Cheng-Prusoff), inhibition of the C3 (TC-G 1008) response at EC90, 30 μM ZnCl2, read-out: fpKi activity
Structures can show the parent of a compound that is named as a salt.
A collection of compounds and their measured Ki

COMPOUND	EXPERIMENTAL_SYSTEM	Ki
CCCN1CCN(C(=O)c2ccc(NC(=O)C(C)C)cc2N2CCCCCC2)CC1 [Example 93]	human GPR39 receptor (Homo sapiens)	0.316 to 1 µM
CCCN1CCN(C(=O)c2ccc(NC(=O)C3CC3)cc2-n2ccc(C)n2)CC1 [Example 8]	human GPR39 receptor (Homo sapiens)	0.0631 to 0.251 µM
COc1cccc(CN2CCN(C(=O)c3ccc(NC(=O)C4CC4)cc3N3CCCCCC3)CC2)c1 [Example 25]	human GPR39 receptor (Homo sapiens)	0.316 to 1 µM
O=C(Nc1ccc(C(=O)N2CCN(C3CCCC3)CC2)c(N2CCCCCC2)c1)C1CC1 [Example 53]	human GPR39 receptor (Homo sapiens)	0.316 to 1 µM
O=C(Nc1ccc(C(=O)N2CCC3(CC2)COC3)c(N2CCC(C(F)(F)F)C2)c1)C1CC1 (single isomer, unassigned) [Example 213b]	human GPR39 receptor (Homo sapiens)	0.0631 to 0.251 µM
CN1CCN(C(=O)c2ccc(NC(=O)C3CC3)cc2N2CCCC2)C(c2ccc(F)cc2)C1 (racemic) [Example 89]	human GPR39 receptor (Homo sapiens)	0.316 to 1 µM
Cn1c(-c2ccccc2)nnc1-c1ccc(NC(=O)C2CC2)cc1N1CCCCCC1 [Example 112]	human GPR39 receptor (Homo sapiens)	0.316 to 1 µM
CCCN1CCN(C(=O)c2ccc(NC(=O)CC)cc2N2CCCCCC2)CC1 [Example 94]	human GPR39 receptor (Homo sapiens)	0.316 to 1 µM
CN1CCN(C(=O)c2ccc(NC(=O)C3CC3)cc2N2CCCCCC2)C(c2ccccn2)C1 (stereo not shown) [Example 74]	human GPR39 receptor (Homo sapiens)	1.26 to 6.31 µM
O=C(Nc1ccc(C(=O)N2CCN(c3ccccn3)CC2)c(N2CCCCCC2)c1)C1CC1 [Example 46]	human GPR39 receptor (Homo sapiens)	0.316 to 1 µM
Cc1nnc(-c2ccc(C(=O)N3CCN(C)CC3c3ccccc3)c(N3CCCC3)c2)o1 (racemic) [Example 123]	human GPR39 receptor (Homo sapiens)	1.26 to 6.31 µM
CN1CCN(C(=O)c2ccc(NC(=O)C3CC3)cc2N2CCCCCC2)C(c2cccs2)C1 (racemic) [Example 69c]	human GPR39 receptor (Homo sapiens)	≤ 0.0501 µM
CN1CCN(C(=O)c2ccc(NC(=O)C3CC3)cc2N2CCCCCC2)C(c2ccsc2)C1 (single isomer, unassigned) [Example 70b]	human GPR39 receptor (Homo sapiens)	≤ 0.0501 µM
CN1CCN(C(=O)c2ccc(NC(=O)C3CC3)cc2N2CCC3(CCC3)C2)C(c2ccccc2)C1 (single isomer, unassigned) [Example 66a]	human GPR39 receptor (Homo sapiens)	≤ 0.0501 µM
CN1CCN(C(=O)c2ccc(NC(=O)C3CC3)cc2N2CCC(C(F)(F)F)C2)C(c2ccccc2)C1 (single isomer, unassigned) [Example 199e, hydrochloride]	human GPR39 receptor (Homo sapiens)	≤ 0.0501 µM
CN1CCN(C(=O)c2ccc(NC(=O)C3CC3)cc2N2CCC3(COC3)C2)C(c2ccccc2)C1 (stereo not shown) [Example 203]	human GPR39 receptor (Homo sapiens)	0.316 to 1 µM
CN1CCN(C(=O)c2ccc(NC(=O)C3CC3)cc2N2CCCC2)C(c2ccccc2Cl)C1 (racemic) [Example 170c]	human GPR39 receptor (Homo sapiens)	≤ 0.0501 µM
O=C(Nc1ccc(C(=O)N2CCC3(CC2)COC3)c(N2CCC(C(F)(F)F)C2)c1)C1CC1 (racemic) [Example 213c]	human GPR39 receptor (Homo sapiens)	0.0631 to 0.251 µM
CC1CCN(c2cc(NC(=O)C3CC3)ccc2C(=O)N2CCN(C)CC2c2ccccc2)C1 (single isomer, unassigned) [Example 64b]	human GPR39 receptor (Homo sapiens)	1.26 to 6.31 µM
CN1CCN(C(=O)c2ccc(NC(=O)C3CC3)cc2N2CCCC2)C(c2ccccc2Cl)C1 (single isomer, unassigned) [Example 170b]	human GPR39 receptor (Homo sapiens)	0.316 to 1 µM
CN1CCN(C(=O)c2ccc(NC(=O)C3CC3)cc2N2CCCC2)C(c2cccc(F)c2)C1 (racemic) [Example 88c]	human GPR39 receptor (Homo sapiens)	0.0631 to 0.251 µM
Cc1noc(C)c1CN1CCN(C(=O)c2ccc(NC(=O)C3CC3)cc2N2CCCCCC2)C(c2ccccc2)C1 (stereo not shown) [Example 81]	human GPR39 receptor (Homo sapiens)	0.316 to 1 µM
CCCN1CCN(C(=O)c2ccc(NC(=O)C3CCC3)cc2N2CCCCCC2)CC1 [Example 90]	human GPR39 receptor (Homo sapiens)	1.26 to 6.31 µM
Cc1nnc(-c2ccc(C(=O)N3CCC4(CC3)CC4)c(-n3ccc(C(F)(F)F)n3)c2)[nH]1 [Example 214]	human GPR39 receptor (Homo sapiens)	≤ 0.0501 µM
CCCN1CCN(C(=O)c2ccc(NC(=O)C3CC3)cc2N2CCCC2)CC1 [Example 16]	human GPR39 receptor (Homo sapiens)	0.0631 to 0.251 µM
O=C(Nc1ccc(C(=O)N2CCOCC2c2ccccc2)c(N2CCCC2)c1)C1CC1 (racemic) [Example 167]	human GPR39 receptor (Homo sapiens)	0.0631 to 0.251 µM
CCCN1CCN(C(=O)c2ccc(NC(=O)C3CC3)cc2N2CCC(C)C2)CC1 (single isomer, unassigned) [Example 13a]	human GPR39 receptor (Homo sapiens)	0.0631 to 0.251 µM
CS(=O)(=O)N1CCN(C(=O)c2ccc(NC(=O)C3CC3)cc2N2CCCC2)C(c2ccccc2)C1 (stereo not shown) [Example 215]	human GPR39 receptor (Homo sapiens)	0.0631 to 0.251 µM
